ASSAYED TARGET: Gonadotropin-releasing hormone receptor (Rattus norvegicus)
ASSAY: Inhibition of GnRHR in rat pituitary cells assessed as inhibition of GnRH-stimulated LH release
Simple rule here: IC50 less than 40 nM is YES, otherwise NO.

Cc1cc(C)cc(-c2[nH]c3c(c2[C@H](C)CNCCc2ccncc2)CN(C(=O)C2C(C)(C)C2(C)C)CC3)c1 NO
Cc1cc(C)cc(-c2[nH]c3c(c2[C@H](C)CNCCc2ccc4nn[nH]c4c2)CN(C(=O)Cc2c(F)cccc2C(F)(F)F)CC3)c1 YES
Cc1cc(C)cc(-c2[nH]c3c(c2[C@H](C)CNCCc2ccc(-c4nnn[nH]4)nc2)CN(C(=O)Cc2c(F)cccc2C(F)(F)F)CC3)c1 NO
Cc1cc(C)cc(-c2[nH]c3c(c2[C@H](C)CNCCc2ccncc2)CN(C(=O)Cc2c(F)cccc2C(F)(F)F)CC3)c1 NO
Cc1cc(C)cc(-c2[nH]c3c(c2[C@H](C)CNCCc2ccc(-c4nnn[nH]4)cc2)CN(C(=O)Cc2c(F)cccc2C(F)(F)F)CC3)c1 YES

Attention now shifts to the item below.
Request: Could you please tell me whether IC50 recorded for Cc1cc(C)cc(-c2[nH]c3c(c2[C@H](C)CNCCc2ccncc2)CN(C(=O)Cc2ccccc2F)CC3)c1 is less than 40 nM?
Result: NO

* * *

ASSAY: AUC in rat at 4.5 mg/kg, ip after 24 hrs
Assay type: ADME, organism-based
Design: time < 24 hr, dose 4.5 mg/kg, route intraperitoneal
SETUP CONDITIONS: plasma
QUANTITY KIND: AUC at 24 h (ng·h/mL)
Express it in ng·h/mL; write the number only.

Entry Cc1cc(C)cc(-c2[nH]c3c(c2[C@H](C)CNCCc2ccc(-c4nnn[nH]4)cc2)CN(C(=O)Cc2c(F)cccc2C(F)(F)F)CC3)c1 ; AUC at 24 h = 2470

* * *

ASSAYED TARGET: UniProt P30969
Sequence (P30969 whole entry): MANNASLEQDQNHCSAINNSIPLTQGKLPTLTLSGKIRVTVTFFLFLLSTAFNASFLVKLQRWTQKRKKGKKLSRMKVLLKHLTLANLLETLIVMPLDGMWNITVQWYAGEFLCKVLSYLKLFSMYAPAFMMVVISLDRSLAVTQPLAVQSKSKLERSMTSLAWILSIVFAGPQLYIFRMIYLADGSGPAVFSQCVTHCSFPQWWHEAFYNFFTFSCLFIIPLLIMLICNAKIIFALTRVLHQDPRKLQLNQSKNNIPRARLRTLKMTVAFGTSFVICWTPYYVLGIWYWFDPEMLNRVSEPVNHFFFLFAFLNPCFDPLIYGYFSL
pKi: −log10 of the molar value.
Kind request: treat 9 as inclusive, so pKi at 9 or higher is YES, anything lower is NO.

Request: Identify whether the reported pKi of the following compound is 9 or greater: Cc1cc(C)cc(-c2[nH]c3c(c2[C@H](C)CNCCc2ccc(=O)n(C)c2)CN(C(=O)Cc2c(F)cccc2C(F)(F)F)CC3)c1
Result: YES

Request: Determine whether measured pKi meets or exceeds 9 for Cc1cc(C)cc(-c2[nH]c3c(c2[C@H](C)CNCCc2ccc4nccnc4c2)CN(C(=O)Cc2c(F)cccc2C(F)(F)F)CC3)c1
Result: YES

Request: Is reported pKi greater than or equal to 9 here: Cc1cc(C)cc(-c2[nH]c3c(c2[C@H](C)CNCCC2CCOCC2)CN(C(=O)Cc2c(F)cccc2C(F)(F)F)CC3)c1
Result: NO

Request: Is it the case that Cc1cc(C)cc(-c2[nH]c3c(c2[C@H](C)CNCCc2ccncc2)CN(C(=O)Cc2c(F)cccc2C(F)(F)F)CC3)c1 has pKi reaching or exceeding 9?
Result: YES

Request: Check this compound for pKi at or above 9: Cc1cc(C)cc(-c2[nH]c3c(c2[C@H](C)CNCCc2ccncc2)CNCC3)c1
Result: NO

Request: In plain terms: is recorded pKi at least 9 for Cc1cc(C)cc(-c2[nH]c3c(c2[C@H](C)CNCCc2ccc(-c4nnn[nH]4)cc2)CN(C(=O)Cc2c(F)cccc2C(F)(F)F)CC3)c1 ?
Result: YES

Request: Does pKi meet or surpass 9 for Cc1cc(C)cc(-c2[nH]c3c(c2[C@H](C)CNCCOc2ccc(-c4nnn[nH]4)cc2)CN(C(=O)Cc2c(F)cccc2C(F)(F)F)CC3)c1 ?
Result: NO
